Biological target: AGTR1 (Homo sapiens)
Construct: host or cells: Pathunter CHO-K1 AGTR1 β-arrestin cell line (CHO-K1)
Sequence (P30556 1-359): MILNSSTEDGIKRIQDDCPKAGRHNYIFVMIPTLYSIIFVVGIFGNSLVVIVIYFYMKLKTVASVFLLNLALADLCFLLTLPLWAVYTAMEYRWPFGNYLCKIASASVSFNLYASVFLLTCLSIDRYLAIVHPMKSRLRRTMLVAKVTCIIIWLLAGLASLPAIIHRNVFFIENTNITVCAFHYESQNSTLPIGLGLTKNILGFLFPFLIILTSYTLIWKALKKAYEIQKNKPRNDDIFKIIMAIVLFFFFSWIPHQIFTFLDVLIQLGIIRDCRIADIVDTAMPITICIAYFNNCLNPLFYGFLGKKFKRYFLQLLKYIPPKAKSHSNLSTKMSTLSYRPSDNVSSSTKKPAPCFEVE
Assay: DiscoveRx β-arrestin2 recruitment assay (enzyme complementation, Pathunter CHO-K1 AGTR1 β-arrestin cell line)
Format: cell-based
Details: DiscoveRx β-arrestin2 recruitment
Field: pEC50. Provide a value for each of the molecules that follow.
Quick note: pEC50 means taking -log10 of the concentration in moles per liter.

Q. Answer with the recorded pEC50 of "CCOc1nc2cccc(C(=O)O)c2n1Cc1ccc(-c2cc(Oc3ccccc3)ccc2-c2nn[nH]n2)cc1" only.
A. 7.88

Q. Note down pEC50 recorded for "CCCCC1=NC2(CCCC2)C(=O)N1Cc1ccc(-c2cc(-c3ccccc3)ccc2-c2noc(=O)[nH]2)cn1"
A. 7.50

Q. Could you please provide reported pEC50 for "CCc1nc2c(C)cc(C)nc2n1Cc1ccc(-c2cc(Oc3cc(C)ccn3)ccc2-c2nn[nH]n2)cc1" ? Thanks!
A. 7.64

Q. Supply measured pEC50 of "CCOc1nc2cccc(C(=O)O)c2n1Cc1ccc(-c2cc(Oc3cccc(OC)c3)ccc2-c2nn[nH]n2)cc1" in your reply.
A. 7.62

---

Biological target: UniProtKB P30556
Sequence (P30556 1-359): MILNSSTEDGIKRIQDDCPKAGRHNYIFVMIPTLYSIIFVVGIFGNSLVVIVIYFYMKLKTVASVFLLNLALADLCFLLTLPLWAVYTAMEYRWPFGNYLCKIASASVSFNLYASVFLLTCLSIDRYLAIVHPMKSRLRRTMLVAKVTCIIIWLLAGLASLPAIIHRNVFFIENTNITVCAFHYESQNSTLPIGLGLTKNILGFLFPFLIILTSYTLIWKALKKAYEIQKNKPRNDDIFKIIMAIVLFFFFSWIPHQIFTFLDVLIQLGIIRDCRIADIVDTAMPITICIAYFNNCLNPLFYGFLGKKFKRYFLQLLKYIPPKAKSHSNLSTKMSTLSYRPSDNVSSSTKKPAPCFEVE
Test: cell-based
Conditions: Low AT1R Expression
Threshold check on BRET β-Arrestin2 Low AT1R Expression Ymax (%): at or above 40% gives condition met, strictly below gives condition not met.

Q. Form field: BRET β-Arrestin2 Low AT1R Expression Ymax (%) at least 40%? Entry: CCCCC1=NC2(CCOC2)C(=O)N1Cc1ccc(-c2cc(-c3ccccc3F)ccc2-c2nnn[nH]2)cc1 (single isomer, unassigned) [Example 148]
A. condition not met

Q. Does BRET β-Arrestin2 Low AT1R Expression Ymax (%) meet or surpass 40% for COc1ccnc(-c2ccc(-c3nn[nH]n3)c(-c3ccc(CN4C(=O)C5(CCCC5)N=C4C4CC4)cc3)c2)c1 [Example 119] ?
A. condition met

Q. Reported BRET β-Arrestin2 Low AT1R Expression Ymax (%) reaches at least 40% for CCc1nc2c(C)cc(C)nc2n1Cc1ccc(-c2cc(-c3ccccc3OC(F)(F)F)ccc2-c2nn[nH]n2)cc1 [Example 1] ?
A. condition met

Q. Entry CCCCC1=NC2(CCOC2)C(=O)N1Cc1ccc(-c2cc(-c3ccccc3O)ccc2-c2nnn[nH]2)cc1 (single isomer, unassigned) [Example 151] : is its BRET β-Arrestin2 Low AT1R Expression Ymax (%) no less than 40%?
A. condition met

Q. Is reported BRET β-Arrestin2 Low AT1R Expression Ymax (%) greater than or equal to 40% here: CCCCC1=NC2(CCOC2)C(=O)N1Cc1ccc(-c2cc(-c3ccccc3F)ccc2-c2nnn[nH]2)cc1 (single isomer, unassigned) [Example 149]
A. condition met

Q. Threshold query (BRET β-Arrestin2 Low AT1R Expression Ymax (%) >= 40%) on CCCCC1=NC2(CCCC2)C(=O)N1Cc1ccc(-c2cc(-c3cc(C)ccn3)ccc2-c2nn[nH]n2)cc1 [Example 139]
A. condition met

Q. Hi, just wondering whether CCc1nc2c(C)cc(C)nc2n1Cc1ccc(-c2cc(-c3ccccc3C(C)C)ccc2-c2nn[nH]n2)cc1 [Example 3] shows BRET β-Arrestin2 Low AT1R Expression Ymax (%) of 40% or higher.
A. condition not met

Q. I'd appreciate it if you could say whether CCCCC1=NC2(CCOC2)C(=O)N1Cc1ccc(-c2cc(-c3ccccc3O)ccc2-c2nnn[nH]2)cc1 (single isomer, unassigned) [Example 150] has BRET β-Arrestin2 Low AT1R Expression Ymax (%) at least equal to 40%.
A. condition met

Q. State whether the measured BRET β-Arrestin2 Low AT1R Expression Ymax (%) reaches 40%, counting equality as reaching it, for CCc1nc2c(C)cc(C)nc2n1Cc1ccc(-c2cc(-c3nccs3)ccc2-c2nn[nH]n2)cc1 [Example 56]
A. condition not met

Q. Can CCc1nc2c(C)cc(C)nc2n1Cc1ccc(-c2cc(-c3ccccc3)ccc2C(=O)O)cc1 [Example 31] be said to have BRET β-Arrestin2 Low AT1R Expression Ymax (%) at or above 40%?
A. condition met

Q. Check the entry CCc1nc2c(C)cc(C)nc2n1Cc1ccc(-c2cc(-c3ccccc3F)ccc2-c2nn[nH]n2)cc1 [Example 19] : does BRET β-Arrestin2 Low AT1R Expression Ymax (%) equal or exceed 40%?
A. condition met

Q. For this compound, is measured BRET β-Arrestin2 Low AT1R Expression Ymax (%) 40% or higher? CCc1nc2c(C)cc(C)nc2n1Cc1ccc(-c2cc(-c3ccsn3)ccc2-c2nn[nH]n2)cc1 [Example 57]
A. condition not met

Q. Tell me whether BRET β-Arrestin2 Low AT1R Expression Ymax (%) is at least 40% here: CCc1nc2c(C)cc(C)nc2n1Cc1ccc(-c2cc(-c3cc(OC)ccn3)ccc2-c2nn[nH]n2)cc1 [Example 62]
A. condition met

Q. hey, is BRET β-Arrestin2 Low AT1R Expression Ymax (%) for this one >= 40%? CCCC1=NC2(CCCC2)C(=O)N1Cc1ccc(-c2cc(-c3ccccc3)ccc2-c2nn[nH]n2)cc1 [Example 114]
A. condition met

Q. Confirm if BRET β-Arrestin2 Low AT1R Expression Ymax (%) reported for the compound CCc1nc2c(C)cc(C)nc2n1Cc1ccc(-c2cc(-c3ccccc3OC)ccc2-c2nn[nH]n2)cc1 [Example 5] is 40% or above.
A. condition not met

Q. Does the reported BRET β-Arrestin2 Low AT1R Expression Ymax (%) for CCCC1=NC2(CCCC2)C(=O)N1Cc1ccc(-c2cc(-c3cc(C)ccn3)ccc2-c2nn[nH]n2)cc1 [Example 116] fall at or above the 40% mark?
A. condition met

Q. Can CCc1nc2c(C)cc(C)nc2n1Cc1ccc(-c2cc(-c3ncc(C)s3)ccc2-c2nn[nH]n2)cc1 [Example 68] be said to have BRET β-Arrestin2 Low AT1R Expression Ymax (%) at or above 40%?
A. condition met

Q. API: above_or_equal(metric=BRET β-Arrestin2 Low AT1R Expression Ymax (%), cutoff=40%) for item CCc1nc2c(C)cc(C)nc2n1Cc1ccc(-c2cc(N3CCC4(CCOC4)C3)ccc2-c2nn[nH]n2)cc1 (stereo not shown) [Example 92]
A. condition met

Q. Answer whether BRET β-Arrestin2 Low AT1R Expression Ymax (%) of CCCCC1=NC2(CCCC2)C(=O)N1Cc1ccc(-c2cc(-c3cc(OC)ccn3)ccc2-c2nn[nH]n2)cc1 [Example 141] is greater than or equal to 40%.
A. condition met

Q. Say whether CC1=NC2(CCCC2)C(=O)N1Cc1ccc(-c2cc(-c3ccccc3)ccc2-c2nn[nH]n2)cc1 [Example 110] shows BRET β-Arrestin2 Low AT1R Expression Ymax (%) of 40% or more.
A. condition not met

Q. hey, is BRET β-Arrestin2 Low AT1R Expression Ymax (%) for this one >= 40%? CCc1nc2c(C)cc(C)nc2n1Cc1ccc(-c2cc(-c3ccc(CO)cc3)ccc2-c2nn[nH]n2)cc1 [Example 63]
A. condition met

Q. I'd appreciate it if you could say whether CCCCC1=NC2(CCOC2)C(=O)N1Cc1ccc(-c2cc(-c3ccccc3)ccc2-c2nnn[nH]2)cc1 (single isomer, unassigned) [Example 147] has BRET β-Arrestin2 Low AT1R Expression Ymax (%) at least equal to 40%.
A. condition not met

Q. Confirm if BRET β-Arrestin2 Low AT1R Expression Ymax (%) reported for the compound CCc1nc2c(C)cc(C)nc2n1Cc1ccc(-c2cc(C3CCCCO3)ccc2-c2nn[nH]n2)cc1 (single isomer, unassigned) [Example 78] is 40% or above.
A. condition met

Q. Tell me whether BRET β-Arrestin2 Low AT1R Expression Ymax (%) is at least 40% here: CCCC1=NC2(CCCC2)C(=O)N1Cc1ccc(-c2cc(-c3cc(OC)ccn3)ccc2-c2nn[nH]n2)cc1 [Example 115]
A. condition met

Q. Dear colleague, could you confirm whether CCc1nc2c(C)cc(C)nc2n1Cc1ccc(-c2cc(-c3ccc(F)cn3)ccc2-c2nn[nH]n2)cc1 [Example 65] has BRET β-Arrestin2 Low AT1R Expression Ymax (%) at or above 40%?
A. condition met

Q. Please check the record CCc1nc2c(C)cc(C)nc2n1Cc1ccc(-c2cc(-c3cccnc3OC)ccc2-c2nn[nH]n2)cc1 [Example 24] and state if its BRET β-Arrestin2 Low AT1R Expression Ymax (%) is at or above 40%.
A. condition not met
